Biological target: purified 6× His-tagged SARS-CoV-2 spike protein (ELISA coat, Example 12) (SARS-CoV-2, UniProt P0DTC2 14-1213)
PARAMETER: pEC50
Entry type: numeric. Quantity: pEC50, the -log10 of concentration in molar units.

BINDER: ab31 (scFv, V domains shown) VH: EVQLVESGAEVKKPGESLKISCKGSGYTFTRYWIGWVRQMPGKGLEWMGIIYPGDLDTRYSPSFQGHVTISADKSISTAYLQWNSLKASDTAMYYCARLPQYCYKGVCKRWFDPWGQGTLVTVSS VL: EIVLTQSPSSVSASVGDRVTITCRASQGIRSWLAWYQQKPGKAPKLLIYAASSLQSGVPSRFSGSGSGTDFTLTISSLQPEDFATYYCQQGHSVPYTFGQGTNLEIK
pEC50: 7.39

Recorded result, ab33 (scFv, V domains shown) VH: EVQLVESGAEVKKPGESLKISCKGSGYTFTRYWIGWVRQMPGKGLEWMGIIYPGDSDTRYSPSFQGHVTISADKSISTAYLQWNSLKASDTAMYYCARLPQYCRAGKCKRWFDPWGQGTLVTVSS VL: EIVLTQSPSSVSASVGDRVTITCRASQGISSWLAWYQQKPGKAPKLLIYAASSLQSGVPSRFSGSGSGTDFTLTISSLQPEDFATYYCQQGNQYPYTFGQGTNLEIK , pEC50: 7.48

Sure, the documented pEC50 for ab49 (scFv, V domains shown) VH: EVQLVESGAEVKKPGESLKISCKGSGYTFTRYWIGWVRQMPGKGLEWMGIIYPGDSDTRYSPSFQGHVTISADKSISTAYLQWNSLKASDTAMYYCARLPQYCENGICKRWFDPWGQGTLVTVSS VL: EIVLTQSPSSVSASVGDRVTITCRASQGIRSWLAWYQQKPGKAPKLLIYAASSLQSGVPSRFSGSGSGTDFTLTISSLQPEDFATYYCQQGDQYPLTFGQGTNLEIK is 6.63
